Taken from PubChem BioAssay.

protocol.details: loss of swimming-algae plug formation – whole organism, Chlamydomonas reinhardtii, WT vs cilia-less mutant, absorbance, 96-well, primary screen (AID 463189);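 also: 0% = wild type cc124 cells in DMSO and 100% = ciliumless bld1 mutant cells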
condition.label: Chlamydomonas reinhardtii gravitaxis, OD600 absorbance, 2 days; at 10 µM; hits give high values
experimental.readout: inhibition (%)
// note: answer is a bare numeric in %

Ask: Item under review: O=C(NCCO)C1(c2ccccc2)CCCC1 . Reported inhibition?
Result: -4.89

Ask: Try this molecule next: CNC(=O)[C@H]1O[C@@H](n2cnc3c(NCc4ccc(N)cc4)ncnc32)C(O)[C@H]1O (stereo partly drawn)
Result: -1.61

Ask: And what about the molecule CCCCCCCCCC[Si](C)(C)CCC(=O)NC(Cc1ccc(C)cc1)c1ccccc1 (stereo not drawn) ?
Result: 1.73
